Quick reference: pIC50 of the listed items.
# System: MIA PaCa-2
# Protocol description: Antiproliferative activity against human MIAPaCa2 cells after 48 hrs by sulforhodamine B assay
# Format: functional, cell-based
# Test settings: MIA PaCa-2, 48 h
pIC50: −log10 of the molar value.

Smiles code	Tested system	pIC50
COc1cc(OC)c2sc(-c3ccc(N/C=C\C(=O)c4cc(OC)c(OC)c(OC)c4)cc3)nc2c1	MIA PaCa-2	4.57
COc1ccc2nc(-c3ccc(N/C=C\C(=O)c4cc(OC)c(OC)c(OC)c4)cc3)sc2c1	MIA PaCa-2	4.51
COc1ccc(C(=O)/C=C\Nc2ccc(-c3nc4cc(OC)c(OC)c(OC)c4s3)cc2C)cc1[N+](=O)[O-]	MIA PaCa-2	4.63
COc1cc(OC)c2sc(-c3ccc(N/C=C\C(=O)c4cc(OC)c(OC)c([N+](=O)[O-])c4)c(C)c3)nc2c1	MIA PaCa-2	4.98
COc1cc(OC)c2sc(-c3ccc(N/C=C\C(=O)c4cc(OC)c(OC)c([N+](=O)[O-])c4)cc3)nc2c1	MIA PaCa-2	4.90
COc1cc(C(=O)/C=C\Nc2ccc(-c3nc4cc(OC)c(OC)c(OC)c4s3)cc2C)c(Br)c(OC)c1OC	MIA PaCa-2	4.61
COc1ccc2nc(-c3ccc(N/C=C\C(=O)c4cc(OC)c(OC)c([N+](=O)[O-])c4)cc3)sc2c1	MIA PaCa-2	4.59
COc1cc(OC)c2sc(-c3ccc(N/C=C\C(=O)c4ccc(OC)c(F)c4)cc3)nc2c1	MIA PaCa-2	5.37
COc1ccc(C(=O)/C=C\Nc2ccc(-c3nc4cc(OC)c(OC)c(OC)c4s3)cc2)cc1F	MIA PaCa-2	4.71
COc1ccc2nc(-c3ccc(N/C=C\C(=O)c4cc(OC)c(OC)c(OC)c4)c(C)c3)sc2c1	MIA PaCa-2	5.00
COc1ccc2nc(-c3ccc(N/C=C\C(=O)c4ccc(OC)c(F)c4)cc3)sc2c1	MIA PaCa-2	5.89
COc1cc(C(=O)/C=C\Nc2ccc(-c3nc4cc(OC)c(OC)c(OC)c4s3)cc2C)cc(OC)c1OC	MIA PaCa-2	4.64
COc1cc(OC)c2sc(-c3ccc(N/C=C\C(=O)c4cc(OC)c(OC)c(OC)c4Br)c(C)c3)nc2c1	MIA PaCa-2	4.80
COc1cc(OC)c2sc(-c3ccc(N/C=C\C(=O)c4ccc(OC)c(O)c4)cc3)nc2c1	MIA PaCa-2	4.94
